# tested target: mGluR5 (Homo sapiens)
# Construct: expressed in transfected cells
# Sequence (P41594 21-1180 isoform P41594-2 limits assumed): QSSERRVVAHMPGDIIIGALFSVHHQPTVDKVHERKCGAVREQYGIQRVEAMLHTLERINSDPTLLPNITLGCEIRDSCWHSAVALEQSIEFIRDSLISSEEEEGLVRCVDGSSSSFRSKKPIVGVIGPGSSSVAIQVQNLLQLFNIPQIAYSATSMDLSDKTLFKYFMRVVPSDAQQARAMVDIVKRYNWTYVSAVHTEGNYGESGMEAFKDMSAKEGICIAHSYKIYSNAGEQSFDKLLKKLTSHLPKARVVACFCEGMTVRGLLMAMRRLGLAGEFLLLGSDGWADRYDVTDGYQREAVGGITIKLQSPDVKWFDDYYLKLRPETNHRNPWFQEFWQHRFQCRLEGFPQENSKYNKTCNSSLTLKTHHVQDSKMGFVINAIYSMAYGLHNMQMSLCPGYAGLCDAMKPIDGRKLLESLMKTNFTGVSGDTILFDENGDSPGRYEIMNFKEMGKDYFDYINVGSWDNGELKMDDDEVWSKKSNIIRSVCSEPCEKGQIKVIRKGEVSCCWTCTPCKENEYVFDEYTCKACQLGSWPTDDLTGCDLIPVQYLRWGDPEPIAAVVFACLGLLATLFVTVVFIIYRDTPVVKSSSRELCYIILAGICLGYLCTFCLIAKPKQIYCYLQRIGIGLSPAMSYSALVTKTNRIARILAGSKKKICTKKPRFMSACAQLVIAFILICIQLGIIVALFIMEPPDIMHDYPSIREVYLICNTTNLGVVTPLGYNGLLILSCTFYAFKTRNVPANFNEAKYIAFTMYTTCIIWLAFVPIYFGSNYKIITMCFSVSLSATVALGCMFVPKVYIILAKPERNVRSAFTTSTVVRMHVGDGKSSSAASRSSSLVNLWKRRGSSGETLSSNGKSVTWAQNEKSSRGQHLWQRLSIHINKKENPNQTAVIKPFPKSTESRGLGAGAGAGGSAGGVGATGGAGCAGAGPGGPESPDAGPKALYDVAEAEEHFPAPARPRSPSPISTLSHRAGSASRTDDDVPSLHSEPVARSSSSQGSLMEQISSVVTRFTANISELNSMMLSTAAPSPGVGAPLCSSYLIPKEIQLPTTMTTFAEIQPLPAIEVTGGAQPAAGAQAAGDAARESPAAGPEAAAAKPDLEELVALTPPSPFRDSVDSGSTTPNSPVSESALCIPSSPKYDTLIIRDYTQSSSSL
# assay protocol: inhibition of the glutamate induced elevation of intracellular Ca2+-concentration
# Format: cell-based
# applied conditions: inhibition of glutamate induced elevation of intracellular Ca2+ at a concentration of 10 μM; read-out: mGluR5 Activity inh. at 10 μM [%]
value type: inhibition at 10 µM (%)

Some solved cases for reference:
Reported inhibition at 10 µM (mGluR5 (Homo sapiens)) for entry "Clc1ccc(Nc2ccc(-c3nccn3Cc3ccccc3)cn2)cc1" is 36

Reported inhibition at 10 µM (mGluR5 (Homo sapiens)) for entry "CCCc1nn[nH]c1-c1cnc(Nc2ccc(Cl)cc2)c(Cl)c1" is 68

P = CCn1ccnc1-c1ccc(Nc2ccc(Cl)cc2)nc1
Q = Cc1cncn1-c1cnc(Nc2ccc(Cl)cc2)c(Cl)c1
// compare: P vs Q , metric inhibition at 10 µM, want the smaller Your choice should be expressed through its label.
Q
